test: qHTS assay for small molecule agonists of the antioxidant response element (ARE) signaling pathway (AID 743202); conditions: HepG2 ARE-bla reporter, beta-lactamase FRET, 16 h; series mostly up to 73.3 µM
Records with an inconclusive call do not appear. Calls of active or inactive are those of the source. Calls come from the whole dose curve; as a rule, active = well fitted activation curve with a large enough effect in the signal ratio in the repeat runs (not every such curve was filed as active); inconclusive = weak or mixed curves, or effect the other way; inactive = no such curve, though single readings can be large or run the other way; the % refers to the signal ratio.
Classes to choose from: active, inactive

Take a look at these entries with their results.
>  <Compound>
CC(Cc1ccccc1)N(C)Cc1ccco1 (stereo unspecified)

>  <Assigned Class>
inactive

$$$$
>  <Compound>
O=C(Cl)c1ccccc1F

>  <Assigned Class>
inactive

$$$$

Problem: Test call for this compound, please: O=Cc1ccccc1
Solution: inactive

Problem: Test call for this compound, please: O=NN(CCO)CCO
Solution: inactive

Problem: Test call for this compound, please: O=P(Cl)(Cl)Cl
Solution: inactive

Problem: Test call for this compound, please: CCCCON=O
Solution: inactive

Problem: Test call for this compound, please: CCCCN(CCCC)C(=S)[S-].CCCCN(CCCC)C(=S)[S-].[Ni+2]
Solution: inactive

Problem: Test call for this compound, please: COC(=O)C(C)N(C(=O)c1ccco1)c1c(C)cccc1C (stereo unspecified)
Solution: inactive

Problem: Test call for this compound, please: Brc1cccc(-c2ccccc2)c1
Solution: inactive

Problem: Test call for this compound, please: CCOP(=S)(OCC)SC(CCl)N1C(=O)c2ccccc2C1=O (stereo unspecified)
Solution: active

Problem: Test call for this compound, please: CC1CN1 (stereo unspecified)
Solution: inactive

Problem: Test call for this compound, please: O=C(O)[C@H](O)[C@@H](O)C(=O)O
Solution: inactive

Problem: Test call for this compound, please: Cc1cnc2c(C(=O)O)c(Cl)ccc2c1
Solution: inactive

* * *

assay: qHTS assay to identify small molecule antagonists of the thyroid receptor (TR) signaling pathway - cell viability counter screen (AID 743064); details: GH3.TRE-Luc viability, CellTiter-Fluor, 24 h; series mostly up to 70.3 µM; note: nearly all actives have a fitted effect of over 50% in size
Inconclusive results are not listed. The source made the active and inactive calls. The call rests on the fitted dose curve; in most records, active means well fitted cell-killing curve with a large enough effect in the repeat runs; inconclusive means weak or mixed curves, or effect the other way; inactive means no such curve, though single readings can be large or run the other way.
Classes to choose from: active, inactive

>  <Molecule>
Oc1ccc2[nH]cc(CCCCN3CC=C(c4ccccc4)CC3)c2c1

>  <Assigned Class>
active

$$$$
>  <Molecule>
CCn1cc[n+](C)c1 (tested in a mixture with another compound)

>  <Assigned Class>
inactive

$$$$
>  <Molecule>
CC(C)[C@@H](Nc1ccc(C(F)(F)F)cc1Cl)C(=O)OC(C#N)c1cccc(Oc2ccccc2)c1 (stereo partly specified)

>  <Assigned Class>
inactive

$$$$
>  <Molecule>
BrCCCBr

>  <Assigned Class>
inactive

$$$$
>  <Molecule>
CCCCON=O

>  <Assigned Class>
inactive

$$$$

Problem: Test call for this molecule, please: CC(Cc1ccc(O)cc1)NCC(O)c1cc(O)cc(O)c1 (stereo unspecified)
Solution: inactive

Problem: Test call for this molecule, please: COc1nc(C)nc(NC(=O)NS(=O)(=O)c2ccccc2Cl)n1
Solution: inactive

Problem: Test call for this molecule, please: CCCCN(CCCC)C(=S)S
Solution: inactive

Problem: Test call for this molecule, please: NC(=O)C(Cl)Cl
Solution: inactive

Problem: Test call for this molecule, please: CNC(=O)O/N=C(\C)C(C)S(C)(=O)=O (stereo unspecified)
Solution: inactive

Problem: Test call for this molecule, please: COc1ccc2c3c1O[C@H]1[C@H](O)CC[C@H]4[C@@H](C2)N(C)CC[C@@]341
Solution: inactive

Problem: Test call for this molecule, please: c1ccc2nc(N3CCNCC3)ccc2c1
Solution: active

Problem: Test call for this molecule, please: CC(=O)C(Cl)C(=O)N(C)C (stereo unspecified)
Solution: inactive

Problem: Test call for this molecule, please: Oc1cc(Cl)cc(Cl)c1
Solution: inactive

Problem: Test call for this molecule, please: Oc1ccc(Cl)c(Cl)c1
Solution: inactive

Problem: Test call for this molecule, please: CNC(C)(C)Cc1ccccc1
Solution: inactive

Problem: Test call for this molecule, please: C=CC(=O)[O][Sn]([CH2]CCC)([CH2]CCC)[CH2]CCC
Solution: active

Problem: Test call for this molecule, please: COCCC#N
Solution: inactive

Problem: Test call for this molecule, please: CO/N=C(\C(=O)OC)c1ccccc1CO/N=C(\C)c1cccc(C(F)(F)F)c1
Solution: active

Problem: Test call for this molecule, please: CC(=O)[O][Pb]([c]1ccccc1)([c]1ccccc1)[c]1ccccc1
Solution: active

Problem: Test call for this molecule, please: N#CCCl
Solution: inactive

Problem: Test call for this molecule, please: N#CSCc1ccccc1
Solution: inactive

Problem: Test call for this molecule, please: Cc1nn(-c2cc(NS(C)(=O)=O)c(Cl)cc2Cl)c(=O)n1C(F)F
Solution: inactive

Problem: Test call for this molecule, please: CN(C)c1ccc(N)cc1
Solution: active

Problem: Test call for this molecule, please: CC(C)Br
Solution: inactive

* * *

assay: qHTS assay to identify small molecule antagonists of the estrogen related receptor signaling pathway with the pleiotropic PPARgamma coactivator (PGC) from Tox21 10K library (AID 1224841); details: PGC/ERR reporter cell line, ONE-Glo luciferase, 18 h; series mostly up to 92.4 µM; note: actives are mostly falling curves and most rising ones were filed inactive; nearly all actives have a fitted effect of over 50% in size
Results filed as inconclusive are left out. Calls of active or inactive are those of the source. No rule for the calls is given here.
Classes to choose from: active, inactive

>  <Compound>
CCN(CC)Cc1nccn1-c1ccc([N+](=O)[O-])cc1C(=O)c1ccccc1Cl

>  <Assigned Class>
inactive

$$$$
>  <Compound>
Cc1ccccc1OP(=O)(Oc1ccccc1C)Oc1ccccc1C

>  <Assigned Class>
inactive

$$$$
>  <Compound>
ClC1(Cl)C2(Cl)C3(Cl)C4(Cl)C(Cl)(Cl)C5(Cl)C3(Cl)C1(Cl)C5(Cl)C24Cl (stereo not given)

>  <Assigned Class>
inactive

$$$$
>  <Compound>
N#CC(C#N)=NNc1cccc(Cl)c1

>  <Assigned Class>
active

$$$$
>  <Compound>
Oc1ccc([C@H]2CNCc3c2ccc(O)c3O)cc1O

>  <Assigned Class>
inactive

$$$$

Problem: Test call for this compound, please: CCN1CCC2(CC1)COc1cc3c(cc12)N(C(=O)c1ccc(-c2ccc(-c4nnc(C)o4)cc2C)cc1)CC3
Solution: active

Problem: Test call for this compound, please: O=C(CCCCl)c1ccc(F)cc1
Solution: inactive

Problem: Test call for this compound, please: CCOP(=S)(OCC)SC(CCl)N1C(=O)c2ccccc2C1=O (stereo not given)
Solution: inactive

Problem: Test call for this compound, please: CC(C)(C)c1ccc(OP(=O)(Oc2ccccc2)Oc2ccccc2)cc1
Solution: active

* * *

assay: qHTS assay for identifying genotoxic compounds that show differential cytotoxicity against isogenic chicken DT40 cell lines with known DNA damage response pathways - Rad54/Ku70 mutant cell line (AID 743015); conditions: DT40 Rad54/Ku70 mutant viability, CellTiter-Glo, 40 h; series mostly up to 66.8 µM; note: nearly all actives have a fitted effect of over 60% in size
Records with an inconclusive call do not appear. Active and inactive are the calls of the source. Calls follow the shape of the dose curve; as a rule, active = well fitted cell-killing curve with a large enough effect in the repeat runs; inconclusive = weak or mixed curves; inactive = no such curve, though single readings can be large or run the other way.
Classes to choose from: yes = active, no = inactive

Take a look at these entries with their results.
>  <Smiles Code>
CCOP(=O)(OCC)Oc1nc(Cl)c(Cl)cc1Cl

>  <Assigned Class>
yes

$$$$
>  <Smiles Code>
CC(=O)[O][Pb]([c]1ccccc1)([c]1ccccc1)[c]1ccccc1

>  <Assigned Class>
yes

$$$$
>  <Smiles Code>
Cc1c([N+](=O)[O-])cc2c(c1[N+](=O)[O-])C(C)(C)CC2(C)C

>  <Assigned Class>
no

$$$$
>  <Smiles Code>
O.O.O.O=C([O-])[C@H]([O-])[C@@H]([O-])C(=O)[O-].O=C([O-])[C@H]([O-])[C@@H]([O-])C(=O)[O-].[K+].[K+].[Sb+3].[Sb+3]

>  <Assigned Class>
yes

$$$$
>  <Smiles Code>
CC(=O)[O-].CC(=O)[O-].O.O.[Zn+2]

>  <Assigned Class>
no

$$$$
>  <Smiles Code>
COP(=S)(OC)Oc1ccc([N+](=O)[O-])c(C)c1

>  <Assigned Class>
no

$$$$
>  <Smiles Code>
COc1nc(C)nc(NC(=O)NS(=O)(=O)c2ccccc2Cl)n1

>  <Assigned Class>
no

$$$$
>  <Smiles Code>
CC[C@]1(O)CC[C@H]2[C@@H]3CCC4=CCCC[C@@H]4[C@H]3CC[C@@]21C

>  <Assigned Class>
yes

$$$$

Problem: Test call for this compound, please: N#CC(C#N)=NNc1cccc(Cl)c1
Solution: yes

Problem: Test call for this compound, please: CCOP(=O)(OCC)Oc1cc(C)nc(C(C)C)n1
Solution: no

* * *

experiment: qHTS assay to identify small molecule agonists of the sonic hedgehog signaling (Shh) pathway (AID 1259368); conditions: NIH/3T3 Gli1-Luc reporter, luciferase, 24 h; series mostly up to 92.4 µM;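 note: NIH/3T3-derived 3T3Gli1-Luc cells carrying a stable Gli1-driven firefly luciferase reporter; nearly all actives have a fitted effect of over 15% in size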
Active and inactive are the calls of the source. Calls come from the whole dose curve.
Classes to choose from: active, inactive

>  <Molecule>
[Cl-].[Cl-].[Cl-].[Yb+3]

>  <Assigned Class>
inactive

$$$$

Problem: Test call for this molecule, please: O=C(O)[C@H](O)[C@@H](O)C(=O)O
Solution: inactive

Problem: Test call for this molecule, please: Cc1ccc(C)c2ccccc12
Solution: inactive

Problem: Test call for this molecule, please: CCNS(=O)(=O)C(F)(F)C(F)(F)C(F)(F)C(F)(F)C(F)(F)C(F)(F)C(F)(F)C(F)(F)F
Solution: inactive

Problem: Test call for this molecule, please: N#CC(C#N)=NNc1cccc(Cl)c1
Solution: inactive

Problem: Test call for this molecule, please: COc1nc(C)nc(NC(=O)NS(=O)(=O)c2ccccc2Cl)n1
Solution: inactive

All figures here come from PubChem BioAssay (Tox21).
